# Tested on: T1, HMGE D83E (Pantoea stewartii subsp. stewartii, UniProt P54293 1-249, D83E)
# T1 sequence: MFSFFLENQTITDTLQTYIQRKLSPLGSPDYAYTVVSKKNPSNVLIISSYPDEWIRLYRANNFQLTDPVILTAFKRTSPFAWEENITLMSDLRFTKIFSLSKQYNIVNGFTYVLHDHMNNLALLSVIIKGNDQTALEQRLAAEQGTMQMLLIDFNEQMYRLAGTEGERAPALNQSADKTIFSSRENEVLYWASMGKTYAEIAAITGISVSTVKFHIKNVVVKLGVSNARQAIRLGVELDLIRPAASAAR
# Experimental protocol: fluorescence anisotropy; 1 uM AHL; 150 mM NaCl, 6 mM HEPES, 17.5 mM Tris, 3% glycerol, pH 7.6, 25 C, 20 min; 3 nM T-esabox, 0-100 nM protein
# Condition label: protein: recombinant; tags: N-terminal His6-MBP-TEV-Gly5; chain copies: 2; label: 5' TAMRA on strand 1; blunt
pKd: −log10 of the molar value.
Outcome measure: pKd

INSERT INTO results (binder, outcome_measure, measurement) VALUES
  ('T-esabox (PesaR28 TAMRA/PesaR28R) (dsDNA) DNA 1: TCTTGCCTGTACTATAGTGCAGGTTAAG DNA 2: CTTAACCTGCACTATAGTACAGGCAAGA', 'pKd', 8.54);
